# target_or_test_system: human recombinant HDAC6 (Homo sapiens)
# Sequence (Q9UBN7 1-1215): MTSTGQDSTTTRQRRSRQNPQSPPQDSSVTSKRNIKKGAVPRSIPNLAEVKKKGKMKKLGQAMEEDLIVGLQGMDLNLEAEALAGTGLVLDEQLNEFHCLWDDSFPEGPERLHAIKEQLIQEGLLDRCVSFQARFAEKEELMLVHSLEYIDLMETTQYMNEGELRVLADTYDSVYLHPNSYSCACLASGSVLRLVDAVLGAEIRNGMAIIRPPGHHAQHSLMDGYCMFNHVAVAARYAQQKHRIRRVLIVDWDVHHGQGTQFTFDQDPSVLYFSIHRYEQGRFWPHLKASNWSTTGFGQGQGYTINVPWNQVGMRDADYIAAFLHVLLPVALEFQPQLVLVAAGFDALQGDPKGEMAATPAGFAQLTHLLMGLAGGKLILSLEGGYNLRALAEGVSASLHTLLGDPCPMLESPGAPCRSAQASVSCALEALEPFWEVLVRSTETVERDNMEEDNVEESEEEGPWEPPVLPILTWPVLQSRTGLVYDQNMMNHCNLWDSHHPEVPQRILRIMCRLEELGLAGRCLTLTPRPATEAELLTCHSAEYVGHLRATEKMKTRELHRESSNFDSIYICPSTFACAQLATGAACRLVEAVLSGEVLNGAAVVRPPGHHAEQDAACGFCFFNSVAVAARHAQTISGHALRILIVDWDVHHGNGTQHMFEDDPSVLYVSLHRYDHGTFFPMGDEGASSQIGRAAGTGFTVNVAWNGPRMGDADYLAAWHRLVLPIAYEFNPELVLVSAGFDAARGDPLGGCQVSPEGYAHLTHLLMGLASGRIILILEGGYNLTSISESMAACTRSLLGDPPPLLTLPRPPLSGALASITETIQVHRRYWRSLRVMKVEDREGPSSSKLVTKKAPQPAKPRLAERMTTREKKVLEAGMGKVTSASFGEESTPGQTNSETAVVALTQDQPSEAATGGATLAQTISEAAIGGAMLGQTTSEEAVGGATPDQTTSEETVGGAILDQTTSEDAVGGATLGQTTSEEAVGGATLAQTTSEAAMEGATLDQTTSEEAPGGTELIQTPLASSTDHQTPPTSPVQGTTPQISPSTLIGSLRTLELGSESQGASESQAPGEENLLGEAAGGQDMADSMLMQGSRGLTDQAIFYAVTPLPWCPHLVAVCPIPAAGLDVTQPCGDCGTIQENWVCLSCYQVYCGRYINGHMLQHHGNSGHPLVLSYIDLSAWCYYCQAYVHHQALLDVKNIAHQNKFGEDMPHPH
# measurement_protocol: HDAC6 enzyme activity inhibition assay (HDAC Fluorimetric Drug Discovery Kit)
# condition_context: same protocol as the HDAC1 enzyme activity test
pIC50: −log10 of the molar value.
measured_metric: pIC50

// solved cases for pIC50 follow
1. CS(=O)(=O)N(Cc1ccc(-c2nnc(C(F)F)o2)cc1F)c1cncnc1 ... 7.19
2. CS(=O)(=O)N(Cc1ccc(-c2nnc(C(F)F)o2)cn1)c1cccc(Cl)c1 ... 8.10
3. CS(=O)(=O)N(Cc1ccc(-c2nnc(C(F)F)o2)cc1F)c1ccc2c(c1)CCC2 ... 7.02
4. Cc1cccc(N(Cc2ccc(-c3nnc(C(F)F)o3)cn2)S(=O)(=O)C2CCN(C3CCOCC3)CC2)c1 ... 7.26

[1] Cc1cccc(N(Cc2ccc(-c3nnc(C(F)F)o3)cc2)S(=O)(=O)C2CCN(C3CCOCC3)CC2)c1
[2] O=C(OCC1CCN(CCS(=O)(=O)N(Cc2ccc(-c3nnc(C(F)F)o3)cc2)c2ccccc2)CC1)C(F)F
[3] CS(=O)(=O)N(Cc1ccc(-c2nnc(C(F)F)o2)cc1F)c1cccc(Br)c1
[4] O=S(=O)(CCN1CCN(c2ccncc2)CC1)N(Cc1ccc(-c2nnc(C(F)F)o2)cc1)c1ccccc1
[5] CC(C)(C)OC(=O)N1CCC(N(Cc2ccc(-c3nnc(C(F)F)o3)cc2F)S(C)(=O)=O)CC1
Sort ascending by pIC50. Please express your ranking as an ordered list of the labels.
5, 1, 2, 4, 3
(5: 6.29, 1: 6.89, 2: 7.15, 4: 7.42, 3: 7.82)

[A] Cc1ccccc1N(Cc1ccc(-c2nnc(C(F)(F)F)o2)cc1F)S(C)(=O)=O
[B] CS(=O)(=O)N(Cc1ccc(-c2nnc(C(F)F)o2)c(F)c1)c1ccccc1
Hi there, can you help? I need to know whether A or B has lower measured pIC50. I would appreciate it if you answered with the label of your choice.
A
(A: 6.95, B: 7.44)

[I] O=S(=O)(CCN1CCN(Cc2ccccc2)CC1)N(Cc1ccc(-c2nnc(C(F)F)o2)cc1)c1ccccc1
[II] CN1CCN(CCCS(=O)(=O)N(Cc2ccc(-c3nnc(C(F)F)o3)cc2)c2ccccc2)CC1
Between I and II , which one shows the larger pIC50 value? Write down the label of the entry you select.
II
(II: 7.40, I: 6.76)

[P] Cc1ccc(N(Cc2ccc(-c3nnc(C(F)(F)F)o3)cc2F)S(C)(=O)=O)cc1
[Q] COC(=O)CS(=O)(=O)N(Cc1ccc(-c2nnc(C(F)F)o2)cc1F)c1ccccc1
Please tell me which of the two, P or Q , has the higher reported pIC50 value. Your answer should be the label of the entry you select.
Q
